Molecular target: P. falciparum apicoplast DNA polymerase (Pf-apPOL) (Plasmodium falciparum, UniProt Q8ILY1)
Sequence (Q8ILY1 entry or part of it): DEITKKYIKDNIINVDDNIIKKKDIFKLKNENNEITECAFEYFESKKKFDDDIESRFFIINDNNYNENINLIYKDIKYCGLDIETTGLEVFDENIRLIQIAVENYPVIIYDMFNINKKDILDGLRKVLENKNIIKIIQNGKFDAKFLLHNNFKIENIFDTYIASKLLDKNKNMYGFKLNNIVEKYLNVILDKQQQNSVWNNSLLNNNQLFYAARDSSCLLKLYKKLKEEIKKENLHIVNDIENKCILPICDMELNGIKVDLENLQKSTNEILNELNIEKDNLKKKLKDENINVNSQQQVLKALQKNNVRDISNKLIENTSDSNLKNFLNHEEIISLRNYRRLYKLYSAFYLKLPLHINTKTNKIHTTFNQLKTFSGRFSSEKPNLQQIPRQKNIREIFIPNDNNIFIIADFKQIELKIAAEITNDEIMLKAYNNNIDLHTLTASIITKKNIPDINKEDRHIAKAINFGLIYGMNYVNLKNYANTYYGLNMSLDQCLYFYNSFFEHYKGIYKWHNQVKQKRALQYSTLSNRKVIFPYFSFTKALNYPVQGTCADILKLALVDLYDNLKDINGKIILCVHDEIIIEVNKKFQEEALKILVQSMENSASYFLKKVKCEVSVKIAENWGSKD
Assay: Fluorescence-based high-throughput DNA polymerase assay (molecular beacon), primary screen and dose-response
Type: biochemical
Settings: DRC-1; 10'; concentration 2.5
Below, each entry is listed alongside its reported % inhibition Apo pol 10'.
// units = %; emit number, no label

{"molecule": "COc1cccc(C(=O)N2CCc3c(nc4cc(-c5ccccc5)[nH]n4c3=O)C2)c1OC", "readout.units": "%", "measured.number": -0.412}

[in] % inhibition Apo pol 10' of `O=C(Nc1cccc(C(=O)Nc2ccc(S(=O)(=O)[O-])c3cc(S(=O)(=O)[O-])cc(S(=O)(=O)[O-])c23)c1)Nc1cccc(C(=O)Nc2ccc(S(=O)(=O)[O-])c3cc(S(=O)(=O)[O-])cc(S(=O)(=O)[O-])c23)c1.[Na+].[Na+].[Na+].[Na+].[Na+].[Na+]` on P. falciparum apicoplast DNA polymerase (Pf-apPOL) (Plasmodium falciparum, UniProt Q8ILY1)?
[out] 28.0363

[in] Kindly state the measured % inhibition Apo pol 10' obtained for `Cc1cccc(CC(=O)N2CCc3c(nc4cc(-c5ccccc5)[nH]n4c3=O)C2)c1` with P. falciparum apicoplast DNA polymerase (Pf-apPOL) (Plasmodium falciparum, UniProt Q8ILY1).
[out] 15

[in] For the record `CCCCCCCCCCCCCCCCCC(=O)CCN(C)C` , what value of % inhibition Apo pol 10' is listed for P. falciparum apicoplast DNA polymerase (Pf-apPOL) (Plasmodium falciparum, UniProt Q8ILY1)?
[out] 4.376

[in] Request body: readout % inhibition Apo pol 10', system P. falciparum apicoplast DNA polymerase (Pf-apPOL) (Plasmodium falciparum, UniProt Q8ILY1), query `O=C1CCCC2=C1C(c1ccccn1)C1=C(CCCC1=O)O2` . Return the value.
[out] 1.279

[in] Query % inhibition Apo pol 10' on P. falciparum apicoplast DNA polymerase (Pf-apPOL) (Plasmodium falciparum, UniProt Q8ILY1) for `O=C(CSc1nc2ccccc2s1)Nc1ncc([N+](=O)[O-])s1`
[out] 10.9138

[in] % inhibition Apo pol 10' of `COCC(=O)Nc1c(-c2cccc(F)c2)nc2cc(C)ccn12` on P. falciparum apicoplast DNA polymerase (Pf-apPOL) (Plasmodium falciparum, UniProt Q8ILY1)?
[out] 6.785

Where these numbers come from: paper PMC9090415
